- Assay Notes: coupled detection enzyme interference, dose response, artefact control for MgcRacGAP inhibitor project, biochemical, coupled enzyme counter-screen (AID 624351);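 further: signal is the ADP detection kit reading of free GDP without any GAP enzyme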
- Condition Parameters: ADP Hunter coupled enzyme counter-screen, fluorescence, no MgcRacGAP; series mostly up to 80 µM
Out of some 2,400 compounds screened, about 1,400 (58%) were called active.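 How the source made its calls: active means inhibition of 30% or more at any tested dose; inconclusive means primary hits over the limit that were never retested; inactive means the rest.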 The set was probably picked from earlier hits. The list shows a part of the results.
Outcomes: active, inactive

Compound: CCC(=Nc1ccc(N)cc1)C1=C(O)C(C(=O)OC)C(C)(C)CC1=O (stereo not drawn)
Qualitative Label: active
//
Compound: COC(=O)C(C(=O)OC)C(C)C(C(=O)OC)C(=O)OC
Qualitative Label: inactive
//
Compound: NC(CSS(=O)(=O)O)=NCCC12CC3CC(CC(O)(C3)C1)C2
Qualitative Label: inactive
//
Compound: CCOc1cc(-c2cc(-c3ccccc3)nc(N)c2C#N)ccc1O
Qualitative Label: inactive
//
Compound: NC(=S)N/N=C/c1cccc(O)c1O
Qualitative Label: active
//
Compound: O=C(CNc1ccc(Oc2ccccc2)cc1)N1CCOCC1
Qualitative Label: inactive
//
Compound: C#CCOCCOCCOCCNc1nc(N2CCN(C(=O)[C@H](CCCCN)n3cc([C@@H](N)C(C)CC)nn3)CC2)nc(N2CCN(C(=O)[C@H](Cc3cc4ccccc4[nH]3)n3cc([C@@H](N)C(C)CC)nn3)CC2)n1 (stereo partly drawn)
Qualitative Label: inactive
//
Compound: c1cc(CN2CCN(C3CCCCCC3)CC2)ccn1
Qualitative Label: inactive
//
Compound: CCN(CC)c1ccc(C(=C2C=CC(=[N+](CC)CC)C=C2)c2ccccc2)cc1
Qualitative Label: inactive
//
Compound: O=C(Cc1coc2cc(O)ccc12)NNC(=O)c1ccc(Br)s1
Qualitative Label: active
//
Compound: COC(=O)C1C(O)=C(C=Nc2ccc(N)cc2)C(=O)CC1(C)C (stereo not drawn)
Qualitative Label: active
//
Compound: O=C(CN1CCOCC1)Nc1ccc2c(c1)OCCO2
Qualitative Label: inactive
//
Compound: CCN(CC)c1ccc(C(=C2C=CC(=[N+](CC)CC)C=C2)c2ccc(N(CC)CC)cc2)cc1
Qualitative Label: active
//
Compound: CCCCn1c(SCC(=O)c2ccc(O)c(O)c2)nc2ccsc2c1=O
Qualitative Label: active
//
Compound: COc1cc2c(cc1N)-c1ccc(N)cc1C2=O
Qualitative Label: active
//
Compound: CCCC(=Nc1ccc(N)cc1)C1=C(O)C(C(=O)OC)C(C)(C)CC1=O (stereo not drawn)
Qualitative Label: active
//
Compound: CCOc1cc(-c2nc3ccccc3s2)ccc1O
Qualitative Label: active
//
Compound: Cc1cnc(NC(=O)C(C)N2CCN(C)CC2)s1 (stereo not drawn)
Qualitative Label: inactive
//
Compound: CCOc1cc(/C=N/NC(=O)C(C)Sc2ccccn2)ccc1O (stereo not drawn)
Qualitative Label: active
//
Compound: Nc1ccc(-c2nc3ccc(N)cc3o2)cc1
Qualitative Label: active
//
Compound: C=CCn1c(N/N=C/c2ccc(O)cc2)nc2ccccc2c1=O
Qualitative Label: active
//
Compound: c1ccc(CNc2ccc(N3CCOCC3)cc2)cc1
Qualitative Label: active
//
Compound: COC(=O)C1=C(C)N(CC2CCCO2)C(=O)/C1=C\c1ccc(O)cc1 (stereo not drawn)
Qualitative Label: active

====

- Assay Notes: coupled detection enzyme interference, dose response, artefact control for MgcRacGAP inhibitor project, biochemical, coupled enzyme counter-screen (AID 624351);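 further: signal is the ADP detection kit reading of free GDP without any GAP enzyme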
- Condition Parameters: ADP Hunter coupled enzyme counter-screen, fluorescence, no MgcRacGAP; series mostly up to 80 µM
The campaign covered roughly 2,400 compounds. About 1,400 (58%) were called active.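 Rule for the calls: active = inhibition of 30% or more at any tested dose; inconclusive = primary hits over the limit that were never retested; inactive = the rest.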 So high a share suggests a set chosen from earlier hits. Some of the results follow.
Outcomes: 1.0 (active), 0.0 (inactive)

Cpd Smiles: O=[N+]([O-])/C=C/c1cc2ccccc2[nH]1
Qualitative Label: 0.0

Cpd Smiles: CCOc1ccc2nc(NC(=O)CS(=O)(=O)c3ccccc3)sc2c1
Qualitative Label: 0.0

Cpd Smiles: Cc1cc(C)nc(SCC(=O)c2ccc(O)c(O)c2)n1
Qualitative Label: 1.0

Cpd Smiles: Cn1cccc1/C=N/N1CCN(c2ccccc2)CC1
Qualitative Label: 1.0

Cpd Smiles: COc1ccc(CN2CCN(c3ccccn3)CC2)c(OC)c1C
Qualitative Label: 0.0

Cpd Smiles: COCCCNCCCCOc1c(Cl)cc(C)cc1Br
Qualitative Label: 0.0

Cpd Smiles: CC(C)CC(=O)N1CCN(Cc2cccc([N+](=O)[O-])c2)CC1
Qualitative Label: 0.0

Cpd Smiles: Oc1ccc(Cc2ccc(Cl)cc2)c(O)c1
Qualitative Label: 1.0

Cpd Smiles: CCn1c(-c2ccccc2)csc1=Nc1ccc(O)cc1
Qualitative Label: 1.0

Cpd Smiles: Cn1cccc1/C=N/N1CCN(c2ccccn2)CC1
Qualitative Label: 1.0

Cpd Smiles: Cc1cc(SCC(=O)c2ccc(O)c(O)c2)nc2ccccc12
Qualitative Label: 1.0

Cpd Smiles: O=C(CSc1nnnn1-c1ccc(F)cc1)c1ccc(O)c(O)c1
Qualitative Label: 1.0

====

- Assay Notes: coupled detection enzyme interference, dose response, artefact control for MgcRacGAP inhibitor project, biochemical, coupled enzyme counter-screen (AID 624351);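 further: signal is the ADP detection kit reading of free GDP without any GAP enzyme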
- Condition Parameters: ADP Hunter coupled enzyme counter-screen, fluorescence, no MgcRacGAP; series mostly up to 80 µM
Among all 2,400 compounds or so, about 1,400 (58%) were called active.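 Rule for the calls: active = inhibition of 30% or more at any tested dose; inconclusive = primary hits over the limit that were never retested; inactive = the rest.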 The set was probably picked from earlier hits. This is one part of the list.
Outcomes: YES for active, NO for inactive

Compound: O=S(=O)(O)c1cc(O)c(N=Nc2ccc(O)cc2O)c2ccccc12
Qualitative Label: YES
--
Compound: Cc1cc(-c2n[nH]c(=S)n2/N=C/c2sccc2C)n[nH]1
Qualitative Label: YES
--
Compound: O=C(c1ccccc1F)N1CCN(Cc2ccc3c(c2)OCO3)CC1
Qualitative Label: NO
--
Compound: O=C1C(Nc2ccc(O)cc2)=C/C(=N/S(=O)(=O)c2cccs2)c2ccccc21
Qualitative Label: YES
--
Compound: CSc1ccc(/C=N/Nc2cccc(C(=O)O)c2)cc1
Qualitative Label: NO
--
Compound: Cc1cccc(-n2nc3c(c2NC(=O)c2ccco2)CSC3)c1C
Qualitative Label: NO
--
Compound: Cc1ccsc1/C=N/Nc1cccc(C(=O)O)c1
Qualitative Label: YES
--
Compound: COC1=C(Nc2ccc(O)cc2)C(=O)c2ccccc2C1=O
Qualitative Label: YES
--
Compound: O=C1NC(=S)S/C1=C\C=C\c1ccc([N+](=O)[O-])o1
Qualitative Label: NO
--
Compound: COC(=O)c1c(NC(=O)CCNCc2ccco2)sc2c1CCC2
Qualitative Label: NO
--
Compound: C=CC[n+]1c(/C=C/c2ccc(OC(C)=O)c(OC)c2)ccc2ccccc21
Qualitative Label: NO
--
Compound: CCOC(=O)C1CCN(Cc2cccc(Oc3ccccc3)c2)CC1
Qualitative Label: NO
--
Compound: CN(C)/N=C/c1ccc(N2CCOCC2)cc1
Qualitative Label: YES
--
Compound: N#CC1=C(S)N(c2ccc(F)cc2)C(c2ccco2)NC1=O (centres undefined)
Qualitative Label: NO
--
Compound: O=C1C(=C(I)I)c2ccccc2-c2ccccc21
Qualitative Label: NO
--
Compound: O=C(Nc1ccc(N2CCCCC2)cc1)c1ccccc1
Qualitative Label: NO
--
Compound: COc1ccc2c(/C=N/Nc3ccc(C(=O)O)cc3)c[nH]c2c1
Qualitative Label: YES
--
Compound: COc1cc(C=C2C(=O)c3ccccc3C2=O)cc(OC)c1OC
Qualitative Label: NO
--
Compound: O=C(O)c1cccc(N/N=C/c2cccs2)c1
Qualitative Label: YES
--
Compound: O=C(O)c1ccc(N/N=C/c2c[nH]c3ccccc23)cc1
Qualitative Label: YES
--
Compound: Cc1cc(/C=C2\SC(=S)NC2=O)cc(C)c1O
Qualitative Label: YES
--
Compound: CCOC(=O)C1CCN(Cc2ccc(-c3ccccc3)cc2)CC1
Qualitative Label: NO
--
Compound: O=C1C(Cl)=C(NCCc2ccccc2)C(=O)c2ccccc21
Qualitative Label: NO
--
Compound: OCC1CCCN(C(=S)Nc2ccc(Nc3ccccc3)cc2)C1 (centres undefined)
Qualitative Label: YES

====

- Assay Notes: coupled detection enzyme interference, dose response, artefact control for MgcRacGAP inhibitor project, biochemical, coupled enzyme counter-screen (AID 624351);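 further: signal is the ADP detection kit reading of free GDP without any GAP enzyme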
- Condition Parameters: ADP Hunter coupled enzyme counter-screen, fluorescence, no MgcRacGAP; series mostly up to 80 µM
The campaign covered roughly 2,400 compounds. About 1,400 (58%) were called active.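 Rule for the calls: active = inhibition of 30% or more at any tested dose; inconclusive = primary hits over the limit that were never retested; inactive = the rest.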 So high a share suggests a set chosen from earlier hits. This is one part of the list.
Outcomes: active, inactive

Compound: O=C(Nc1ccc(C2=NCCN2)cc1)c1ccc(C(=O)Nc2ccc(C3=NCCN3)cc2)c([N+](=O)[O-])c1
Qualitative Label: inactive
//
Compound: COc1cc(/C=N/n2c(-c3cc(C)[nH]n3)n[nH]c2=S)cc(OC)c1OC
Qualitative Label: active
//
Compound: CC(C(=O)Nc1ccc2c(c1)OCO2)N1CCN(C)CC1 (stereo not drawn)
Qualitative Label: inactive
//
Compound: COc1ccc(/C=N/Nc2ncnc3sc4c(c23)CCCC4)cc1O
Qualitative Label: active
//
Compound: Cc1ccc(O)c(N=Cc2sc3ccccc3c2Cl)c1
Qualitative Label: active
//
Compound: Nc1ccc2[nH]c(=S)[nH]c2c1
Qualitative Label: active
//
Compound: COc1cccc(OC)c1OCCNC(C)(C)C
Qualitative Label: inactive
//
Compound: CCN1C(=O)/C(=C2/C=Cc3cc(C)ccc3N2CC)N(C)C1=S
Qualitative Label: active
//
Compound: COc1cc(/C=N/n2c(-c3cc(C)[nH]n3)n[nH]c2=S)cc(OC)c1O
Qualitative Label: active
//
Compound: CCN(CC)CCOC(=O)c1ccc(N/C=C(/C#N)c2nc(-c3ccc4c(c3)OCO4)cs2)cc1
Qualitative Label: inactive
//
Compound: C#CCOCCOCCOCCNc1nc(N2CCN(C(=O)C([C@@H](C)O)n3cc([C@@H](N)CCCCN)nn3)CC2)nc(N2CCN(C(=O)[C@H](CO)n3cc([C@@H](N)C(C)C)nn3)CC2)n1 (stereo partly drawn)
Qualitative Label: inactive
//
Compound: N#Cc1c(Nc2ccccc2)s[nH]c1=O
Qualitative Label: inactive
//
Compound: CCN(CC)C(=O)C1CCCN(Cc2ccc3c(c2)OCO3)C1 (stereo not drawn)
Qualitative Label: inactive
//
Compound: CC(C)c1ccc(/C=N/N2CCCCC2)cc1
Qualitative Label: inactive
//
Compound: CN(C)c1ccc(/C=N\Nc2ccccn2)cc1
Qualitative Label: active
//
Compound: COc1cc(/C=N/Nc2cccc3cccnc23)cc(OC)c1O
Qualitative Label: inactive
//
Compound: CN(C)c1ccc(NC(=O)COC(=O)c2ccc3c(c2)OCO3)cc1
Qualitative Label: active
//
Compound: CN(C)c1ccc(/C=N/N2CCN(Cc3ccccc3Cl)CC2)cc1
Qualitative Label: active
//
Compound: OCCCCNc1cccc2ccccc12
Qualitative Label: active
//
Compound: O=C(Oc1ccc2c(c1)OCO2)c1ccncc1
Qualitative Label: inactive
//
Compound: CCN(CC)c1ccc(/C=N/N2CCOCC2)cc1
Qualitative Label: active
//
Compound: CCN(CC)c1ccc(NC(=O)c2ccc3c(c2)OCO3)cc1
Qualitative Label: active
//
Compound: CCN(CC)c1ccc(/C=N/N2CCOCC2)c(O)c1
Qualitative Label: active
